OBSERVABLE: melting point

Examples from the recorded data:
CC1(C)CCC(C)(C)c2cc3cc(-c4ccc(C(=O)O)cc4)ccc3cc21 | 282 °C
CC(C)(C)C(=O)C(CCCCOc1ccccc1)n1cncn1 (stereo not given) | 59 to 62 °C
O=C1C2=NCCCN2c2cc(Cl)ccc21 | 164 to 167 °C
CC1CC(=O)N(c2ccc(F)cc2)C(=S)C1 (stereo not given) | 84.5 to 87.5 °C
COc1ccc(CN(C)CCCSc2ccc(NC(=O)c3cccc4c(=O)c5cccc(F)c5[nH]c34)cc2)cc1OC | 120 to 130 °C

Task item: Query: melting point; subject: CCOC(=O)C1CC(=C2CCN(c3ccccc3)C2=O)c2ccc(Cl)cc2N1 (stereo not given)
Reply: 160 to 162 °C

Task item: Here is the next compound: COc1ccc(OC)c2c1C=C(C(=O)O)CC2
Reply: < 220 °C

Task item: Here is the next compound: CC1=C(C)C2=NC(C)(C(C)C)C(=O)N2C1=O (stereo not given)
Reply: 98 to 99 °C

Task item: Here is the next compound: COc1cc2c(cc1OC)CN(c1cc(N)c3cc(OC)c(OC)cc3n1)CC2
Reply: 226 to 227 °C

Task item: Here is the next compound: COC(=O)c1cc(S(C)(=O)=O)ccc1OC1CCOC1=O (stereo not given)
Reply: 102 to 105 °C
